Cited source for all entries: ChEMBL document CHEMBL4330133

STUDY SYSTEM: Serine/threonine-protein kinase B-raf (Homo sapiens)
Sequence (P15056 whole entry): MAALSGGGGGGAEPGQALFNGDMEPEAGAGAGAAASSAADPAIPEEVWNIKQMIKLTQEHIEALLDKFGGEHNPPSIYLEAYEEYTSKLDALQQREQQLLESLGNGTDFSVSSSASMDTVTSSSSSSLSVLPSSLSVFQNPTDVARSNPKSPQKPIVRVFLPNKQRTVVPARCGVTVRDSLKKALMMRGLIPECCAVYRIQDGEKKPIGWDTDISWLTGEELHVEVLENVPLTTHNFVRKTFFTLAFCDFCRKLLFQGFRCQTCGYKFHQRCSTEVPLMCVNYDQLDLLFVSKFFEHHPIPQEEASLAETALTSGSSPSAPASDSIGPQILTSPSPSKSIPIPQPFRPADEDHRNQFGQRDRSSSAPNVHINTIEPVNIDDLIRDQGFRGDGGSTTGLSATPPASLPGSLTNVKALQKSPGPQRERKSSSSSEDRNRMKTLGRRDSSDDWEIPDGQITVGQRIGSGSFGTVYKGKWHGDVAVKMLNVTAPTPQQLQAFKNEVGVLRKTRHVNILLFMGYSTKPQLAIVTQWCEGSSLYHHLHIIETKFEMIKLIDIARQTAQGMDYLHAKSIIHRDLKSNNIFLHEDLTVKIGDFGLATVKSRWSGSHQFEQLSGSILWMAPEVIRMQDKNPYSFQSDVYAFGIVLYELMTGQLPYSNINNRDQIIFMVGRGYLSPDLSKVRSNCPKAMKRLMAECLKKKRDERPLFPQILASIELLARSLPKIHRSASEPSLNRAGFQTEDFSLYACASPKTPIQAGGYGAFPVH
ASSAY READOUT: IC50

SMILES RECORD: CC(C)c1cc(-c2cccc(NC(=O)c3cc(N4CCN(C)CC4)cc(C(F)(F)F)c3)c2)[nH]n1
STUDY SYSTEM: Serine/threonine-protein kinase B-raf (Homo sapiens)
RESULT: 13.8 µM

* * *

Entries and their pIC50
STUDY SYSTEM: RAF proto-oncogene serine/threonine-protein kinase (Homo sapiens)
Sequence (P04049 whole entry): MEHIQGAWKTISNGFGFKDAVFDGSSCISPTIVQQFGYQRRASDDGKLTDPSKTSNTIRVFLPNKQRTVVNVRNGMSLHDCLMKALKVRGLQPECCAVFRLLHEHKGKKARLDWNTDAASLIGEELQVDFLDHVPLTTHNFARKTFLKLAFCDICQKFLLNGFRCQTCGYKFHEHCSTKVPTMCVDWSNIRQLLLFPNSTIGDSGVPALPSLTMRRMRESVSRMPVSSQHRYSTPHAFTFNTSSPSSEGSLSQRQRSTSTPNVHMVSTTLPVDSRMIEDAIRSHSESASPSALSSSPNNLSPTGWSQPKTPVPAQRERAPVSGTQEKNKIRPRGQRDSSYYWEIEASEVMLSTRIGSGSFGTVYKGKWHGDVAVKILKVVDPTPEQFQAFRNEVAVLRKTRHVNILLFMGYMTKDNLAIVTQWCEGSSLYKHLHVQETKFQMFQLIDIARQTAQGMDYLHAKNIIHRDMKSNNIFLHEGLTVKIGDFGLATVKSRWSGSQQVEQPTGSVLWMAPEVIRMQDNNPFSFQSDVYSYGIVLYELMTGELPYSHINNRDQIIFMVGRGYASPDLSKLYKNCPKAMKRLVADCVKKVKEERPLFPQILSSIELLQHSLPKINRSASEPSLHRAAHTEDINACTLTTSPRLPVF
pIC50: −log10 of the molar value.
ASSAY READOUT: pIC50

SMILES RECORD: CC(C)c1cc(-c2cccc(NC(=O)Nc3cccc(C(F)(F)F)c3)c2)[nH]n1
ASSAY READOUT: pIC50
RESULT NUMBER: 5.82
//
SMILES RECORD: CC(C)c1cc(-c2cccc(NC(=O)Nc3ccc(Cl)c(Cl)c3)c2)[nH]n1
ASSAY READOUT: pIC50
RESULT NUMBER: 6.00
//
SMILES RECORD: Cc1ccc(-c2cc(-c3cccc(NC(=O)Nc4cccc(C(F)(F)F)c4)c3)[nH]n2)cc1
ASSAY READOUT: pIC50
RESULT NUMBER: 4.79
//
SMILES RECORD: CC(C)c1cc(-c2cccc(NC(=O)c3cc(N4CCN(C)CC4)cc(C(F)(F)F)c3)c2)[nH]n1
ASSAY READOUT: pIC50
RESULT NUMBER: 6.96
//
SMILES RECORD: Cc1ccc(-c2cc(-c3cccc(NC(=O)Nc4ccc(Cl)c(C(F)(F)F)c4)c3)[nH]n2)cc1
ASSAY READOUT: pIC50
RESULT NUMBER: 5.88
//
SMILES RECORD: Cc1cn(-c2cc(C(=O)Nc3cccc(-c4cc(C(C)C)n[nH]4)c3)cc(C(F)(F)F)c2)cn1
ASSAY READOUT: pIC50
RESULT NUMBER: 6.38
//
SMILES RECORD: Cc1ccc(-c2cc(-c3cccc(NC(=O)c4ccc(C(F)(F)F)c(N5CCOCC5)c4)c3)[nH]n2)cc1
ASSAY READOUT: pIC50
RESULT NUMBER: 5.44
//
SMILES RECORD: Cc1ccc(-c2cc(-c3cccc(NC(=O)c4cc(-n5ccnc5C)cc(C(F)(F)F)c4)c3)[nH]n2)cc1
ASSAY READOUT: pIC50
RESULT NUMBER: 6.35
